# PROTOCOL_DESCRIPTION: recombinant barcode read abundance after kanamycin selection (control-corrected) (log10(CPM+1)); higher = more efficient recombination; sequences stand for … in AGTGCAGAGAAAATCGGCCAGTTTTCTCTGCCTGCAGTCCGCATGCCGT…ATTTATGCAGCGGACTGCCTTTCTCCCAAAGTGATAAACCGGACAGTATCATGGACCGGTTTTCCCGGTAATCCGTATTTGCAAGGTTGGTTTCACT; site = the 11-nt target
MEASUREMENT_LABEL: recombinant barcode read abundance (log10)
// return a plain number; no unit text

Q: Field request: recombinant barcode read abundance (log10) | item: GGACACCTTTGGGTTCTAACCTGTTGCCTAA [GGACACCCTAG_LTGcore_TT_RTGcore_TT] (site GGACACCCTAG) (LTG core: TT, RTG core: TT)
Ans: 0.175

Q: How about this sequence: GGGCGTGCTTGGGTTCTAACCTGTTGCCTTC [GGGCGTGCTAG_LTGcore_CT_RTGcore_GA] (site GGGCGTGCTAG) (LTG core: CT, RTG core: GA)
Ans: 0.564

Q: How about this sequence: GTCGCCCGATGGGTTCTAACCTGTTGCTAAG [GTCGCCCCTTA_LTGcore_GA_RTGcore_CT] (site GTCGCCCCTTA) (LTG core: GA, RTG core: CT)
Ans: 0

----------
I'd appreciate it if you could supply recombinant barcode read abundance (log10) values for the items below.
# PROTOCOL_DESCRIPTION: recombinant barcode read abundance after kanamycin selection (control-corrected) (log10(CPM+1)); higher = more efficient recombination; sequences stand for … in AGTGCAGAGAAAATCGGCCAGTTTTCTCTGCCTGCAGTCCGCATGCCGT…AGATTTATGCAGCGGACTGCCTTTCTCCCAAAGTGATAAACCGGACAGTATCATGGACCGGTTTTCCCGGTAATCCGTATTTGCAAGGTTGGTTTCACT; site = the 11-nt target
// return a plain number; no unit text

Q: Field request: recombinant barcode read abundance (log10) | item: CGTCCTGCTTGGGTTCTAACCTGTTGCCT (site AGTCCTGCTAG)
Ans: 0

Q: How about this sequence: AGGAATTCTTGGGTTCTAACCTGTTGCCT (site AGAAATTCTAG)
Ans: 0.443

Q: How about this sequence: TCGAACCCTTGGGTTCTAACCTGTTGCTT (site TCGAACCCTAA)
Ans: 0.258

Q: How about this sequence: CGGTTGCCTTGGGTTCTAACCTGTTGCGT (site CGGTTGCCTAC)
Ans: 2.48

Q: How about this sequence: GAGTAGTCTTGGGTTCTAACCTGTTGCTT (site GAGTAGTCTAA)
Ans: 2.05

Q: How about this sequence: CCGTATGCTTGGGTTCTAACCTGTTGCCT (site CCGTATGCTAG)
Ans: 0.168

Q: How about this sequence: AGTAATTCTTGGGTTCTAACCTGTTGCCT (site AGGAATTCTAG)
Ans: 0.0166

Q: How about this sequence: GAACGACCTTGGGTTCTAACCTGTTGCCT (site GAACGACCTAG)
Ans: 0.721

Q: How about this sequence: AGACAGACTTGGGTTCTAACCTGTTGCGT (site CAGAGCTCTCG)
Ans: 0.0309

Q: How about this sequence: CACCGTTCTTGGGTTCTAACCTGTTGCTT (site CACCGTTCTAA)
Ans: 0.552
